Target: T1, IL-2 receptor βγ complex on pan T cells (human, UniProt P14784 27-551; P31785 23-369)
T1 sequence (looked up) 1: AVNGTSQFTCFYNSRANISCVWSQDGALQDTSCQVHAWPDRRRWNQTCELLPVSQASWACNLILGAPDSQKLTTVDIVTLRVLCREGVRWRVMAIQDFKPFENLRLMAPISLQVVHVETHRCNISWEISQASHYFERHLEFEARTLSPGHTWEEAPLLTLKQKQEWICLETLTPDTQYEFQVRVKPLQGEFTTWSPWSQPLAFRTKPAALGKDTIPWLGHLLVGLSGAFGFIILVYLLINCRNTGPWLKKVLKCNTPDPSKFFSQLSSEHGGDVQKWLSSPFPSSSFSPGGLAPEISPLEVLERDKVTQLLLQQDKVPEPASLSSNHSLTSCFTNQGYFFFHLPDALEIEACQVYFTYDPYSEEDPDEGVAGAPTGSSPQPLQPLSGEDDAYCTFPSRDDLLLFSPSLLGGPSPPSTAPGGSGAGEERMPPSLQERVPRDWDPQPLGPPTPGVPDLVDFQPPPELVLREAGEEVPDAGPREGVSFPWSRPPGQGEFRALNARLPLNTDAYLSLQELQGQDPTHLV
T1 sequence (looked up) 2: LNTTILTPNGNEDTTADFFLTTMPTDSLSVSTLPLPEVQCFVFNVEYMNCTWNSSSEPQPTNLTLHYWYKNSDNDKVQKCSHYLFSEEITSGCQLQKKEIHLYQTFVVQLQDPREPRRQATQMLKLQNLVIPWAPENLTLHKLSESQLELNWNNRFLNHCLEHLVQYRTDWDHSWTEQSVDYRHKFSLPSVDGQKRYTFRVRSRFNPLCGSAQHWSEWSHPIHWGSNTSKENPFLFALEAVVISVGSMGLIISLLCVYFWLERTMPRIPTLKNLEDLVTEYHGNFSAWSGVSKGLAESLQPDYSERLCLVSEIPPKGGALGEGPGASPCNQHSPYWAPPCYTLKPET
Test: cell-based or functional assay
Bridges are numbered along the chain shown (N, C = ends). [ ]: non-standard residue; d: D form. Ygp = O-(8x polyethylene glycol-amino)-tyrosine; Yn3 = O-(9x polyethylene glycol-azido)-tyrosine; hSer = N[C@@H](CCO)C(=O)O; Nle = CCCC[C@H](N)C(=O)O
Measured Metric: Average EC50, pSTAT5 assay in pan T cells, intact molecule (nM)
Quick reminder: number only, in nM, skip the unit.

Specify Average EC50, pSTAT5 assay in pan T cells, intact molecule for CMP-169 (ligand, bridge 9-23; not fully specified (residue 9, bridges); ends not checked; also: cleavable peptide of the bridge not defined) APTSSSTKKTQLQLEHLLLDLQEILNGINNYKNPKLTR[Nle]L[hSer][Yn3]KF[Ygp][Nle]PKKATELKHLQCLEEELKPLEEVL[hSer]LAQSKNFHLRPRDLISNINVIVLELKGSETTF[hSer]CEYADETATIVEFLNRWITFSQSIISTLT and stop.
53.4

Cited source: patent US20240417436A1
